Target: D(2) dopamine receptor (Homo sapiens, UniProt P14416)
Sequence (P14416 whole entry): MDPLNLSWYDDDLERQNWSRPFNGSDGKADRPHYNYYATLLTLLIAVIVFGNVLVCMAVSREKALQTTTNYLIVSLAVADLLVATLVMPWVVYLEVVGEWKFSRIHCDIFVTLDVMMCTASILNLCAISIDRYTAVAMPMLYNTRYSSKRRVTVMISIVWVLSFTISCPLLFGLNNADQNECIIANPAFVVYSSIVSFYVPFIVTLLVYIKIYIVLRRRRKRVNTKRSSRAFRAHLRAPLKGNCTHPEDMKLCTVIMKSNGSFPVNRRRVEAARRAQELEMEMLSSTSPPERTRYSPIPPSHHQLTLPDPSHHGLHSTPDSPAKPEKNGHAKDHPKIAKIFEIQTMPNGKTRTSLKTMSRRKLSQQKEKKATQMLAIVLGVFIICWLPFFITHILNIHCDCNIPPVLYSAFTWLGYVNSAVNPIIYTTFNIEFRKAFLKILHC
Assay: Antagonist activity at dopamine D2 receptor
// pIC50 lookup, one value per entry
Value format note: pIC50 is -log10 of concentration (mol/L); just state the number.

Examples with their reported pIC50 follow.
SMILES REPR: CCN1CCC[C@H]1CNC(=O)c1c(Br)c(Cl)cc(O)c1OC
pIC50: 7.24
--
SMILES REPR: CCc1cc(O)c(OC)c(C(=O)NC[C@@H]2CCCN2CC)c1
pIC50: 8.54

Now examine the next entry.
Briefly, pIC50 measured for CCc1ccc(OC)c(C(=O)NC[C@@H]2CCCN2CC)c1OC : 8.89

Values from ChEMBL document CHEMBL1275273
